Origin of values: ChEMBL document CHEMBL1152304

system: HCT-116; test: Cytotoxicity against human HCT116 cells; type: functional, cell-based
Listed below: IC50 values for each entry.
Reply numerically in nM, unit not repeated.

[[record]]
compound = "CCCCCCCCCC[C@H](O)[C@H]1CC[C@@H]([C@@H]2CC[C@H]([C@H](O)CCCCCCCCCC[C@@H](O)CC3=C[C@H](C)OC3=O)O2)O1 [rolliniastatin-1]"
target_system = "HCT-116"
readout_label = "IC50"
readout_number = 0.22


Reported IC50 ( CCCCCCCCCC[C@@H](O)[C@@H]1CC[C@@H]([C@@H]2CC[C@@H]([C@H](O)CCCCCCCCCC(O)CC3=CC(C)OC3=O)O2)O1 (stereo partly drawn) [BULLATACIN] ) = 1.4

Reported IC50 ( CCCCCCCCCC[C@@H](O)[C@H]1CC[C@H]([C@H]2CC[C@H]([C@@H](O)CCCCCCCCCC[C@@H](O)CC3=C[C@H](C)OC3=O)O2)O1 ) = 27

Reported IC50 ( CCCCCCCCCC[C@H](O)[C@H]1CC[C@@H]([C@@H]2CC[C@H]([C@@H](O)CCCCCCCCCC[C@@H](O)CC3=C[C@H](C)OC3=O)O2)O1 ) = 0.69

Reported IC50 ( CCCCCCCCCCC(O)C1CCC(C2CCC(C(O)CCCCCCCC[C@H](O)CC3=C[C@@H](C)OC3=O)O2)O1 (stereo partly drawn) [ASIMICIN] ) = 0.51

Reported IC50 ( CCCCCCCCCC[C@@H](O)[C@H]1CC[C@@H]([C@@H]2CC[C@H]([C@H](O)CCCCCCCCCC[C@@H](O)CC3=C[C@H](C)OC3=O)O2)O1 ) = 18

Reported IC50 ( CCCCCCCCCC[C@@H](O)[C@H]1CC[C@@H]([C@@H]2CC[C@H]([C@@H](O)CCCCCCCCCC[C@@H](O)CC3=C[C@H](C)OC3=O)O2)O1 ) = 5.6

Reported IC50 ( CCCCCCCCCC[C@H](O)[C@H]1CC[C@H]([C@H]2CC[C@H]([C@@H](O)CCCCCCCCCC[C@@H](O)CC3=C[C@H](C)OC3=O)O2)O1 ) = 0.45

###

test system: L1210; assay: Cytotoxicity against mouse L1210 cells at 60 ug by disk diffusion assay; assay type: functional
Listed below: inhibition zone (IZ) values for each entry.
Reply numerically in Zone units, unit not repeated.

[[record]]
molecule = "CCCCCCCCCC[C@H](O)[C@H]1CC[C@H]([C@H]2CC[C@H]([C@@H](O)CCCCCCCCCC[C@@H](O)CC3=C[C@H](C)OC3=O)O2)O1"
readout_label = "inhibition zone (IZ)"
readout_number = 800

[[record]]
molecule = "CCCCCCC[C@H](O)CC[C@H](O)[C@H]1CC[C@H]([C@H]2CC[C@H]([C@H](O)CCCCCCCCCC[C@@H](O)CC3=C[C@H](C)OC3=O)O2)O1"
readout_label = "inhibition zone (IZ)"
readout_number = 700

[[record]]
molecule = "CCCCCCCCCC[C@@H](O)[C@H]1CC[C@@H]([C@@H]2CC[C@H]([C@H](O)CCCCCCCCCC[C@@H](O)CC3=C[C@H](C)OC3=O)O2)O1"
readout_label = "inhibition zone (IZ)"
readout_number = 450

[[record]]
molecule = "CCCCCCCCCC[C@H](O)[C@H]1CC[C@@H]([C@@H]2CC[C@H]([C@H](O)CCCCCCCCCC[C@@H](O)CC3=C[C@H](C)OC3=O)O2)O1"
readout_label = "inhibition zone (IZ)"
readout_number = 600


Reported inhibition zone (IZ) ( CCCCCCCCCCC(O)C1CCC(C2CCC(C(O)CCCCCCCC[C@H](O)CC3=C[C@@H](C)OC3=O)O2)O1 (stereo partly specified) ) = 600

Reported inhibition zone (IZ) ( CCCCCCCCCC[C@@H](O)[C@@H]1CC[C@@H]([C@@H]2CC[C@@H]([C@H](O)CCCCCCCCCC(O)CC3=CC(C)OC3=O)O2)O1 (stereo partly specified) ) = 550

Reported inhibition zone (IZ) ( CCCCCCC[C@H](O)CC[C@H](O)[C@H]1CC[C@H]([C@H]2CC[C@H]([C@@H](O)CCCCCCCCCC[C@@H](O)CC3=C[C@H](C)OC3=O)O2)O1 ) = 600

Reported inhibition zone (IZ) ( CCCCCCCCCC[C@H](O)[C@H]1CC[C@@H]([C@@H]2CC[C@H]([C@@H](O)CCCCCCCCCC[C@@H](O)CC3=C[C@H](C)OC3=O)O2)O1 ) = 650

Reported inhibition zone (IZ) ( CCCCCCCCCC[C@@H](O)[C@H]1CC[C@H]([C@H]2CC[C@H]([C@@H](O)CCCCCCCCCC[C@@H](O)CC3=C[C@H](C)OC3=O)O2)O1 ) = 400

Reported inhibition zone (IZ) ( CCCCCCCCCC[C@@H](O)[C@H]1CC[C@@H]([C@@H]2CC[C@H]([C@@H](O)CCCCCCCCCC[C@@H](O)CC3=C[C@H](C)OC3=O)O2)O1 ) = 200

Reported inhibition zone (IZ) ( CCCCCCCCCC[C@@H](O)[C@H]1CC[C@@H]([C@H]2CC[C@H]([C@H](O)CCC[C@H](O)CCCCCCCC3=C[C@H](C)OC3=O)O2)O1 ) = 850
